Each recorded value in this set is attributed to patent US20240002516A1.

target: T1, extracellular domain (ECD) of human TrkA protein, N-terminal flag tag and C-terminal His tag (PHA) (human, UniProt P04629 33-423); test: BLI (Octet Red384), as in Example 4
T1 construct: Made in 293-F cells and purified by IMAC; also called TrkA ECD protein; TrkA (ECD); not shown: flag tag at the N-terminus (after the signal peptide); His tag at the C-terminus
T1 sequence (P04629 33-423): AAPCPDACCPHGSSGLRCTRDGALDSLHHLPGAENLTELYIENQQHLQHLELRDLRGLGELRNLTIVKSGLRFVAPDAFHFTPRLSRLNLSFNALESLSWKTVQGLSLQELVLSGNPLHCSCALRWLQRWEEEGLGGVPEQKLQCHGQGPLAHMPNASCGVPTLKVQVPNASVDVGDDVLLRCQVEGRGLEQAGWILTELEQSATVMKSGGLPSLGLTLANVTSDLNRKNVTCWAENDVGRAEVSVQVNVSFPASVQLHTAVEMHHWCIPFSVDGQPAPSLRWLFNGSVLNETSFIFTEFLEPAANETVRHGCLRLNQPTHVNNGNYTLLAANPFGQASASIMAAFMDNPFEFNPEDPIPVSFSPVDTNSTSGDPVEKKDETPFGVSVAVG

[
  {
    "binder": "chi-PHD48 (the chimeric antibody derived from muPHD48) (antibody, V domains shown, Chimeric: VH in the pCDNA3.4-hIgG4 vector and VL in the pCDNA3.4-hKappa vector (human IgG4 / human kappa constant regions)) VH: EVQLQQSGTVLARPGASVKMSCKASGYSFTTYWMHWVKQRPGQGLEWIGTIYPGNSDSSNNQKFKGKAKLTAVTSASTAYMELSSLTNEDSAVYYCTRFYYEDWYFDVWGAGTTVTVSS VL: QIVLTQSPAIMSASPGEKVTISCSASSSVSYMYWFQQKPGSSPKPWIYRTSNLASGVPARFSGSGSGTSYSLTISSMEAEDAATYYCQQYHSYPPTFGGGTKLEIK",
    "koff / s⁻¹": 0.000761
  }
]
